- System: Escherichia coli TOP10
- experimentNotes: shrunken log2 fold change of peptide-encoding DNA abundance (4.5 h post-induction vs induction); higher = less antimicrobial activity (less host growth inhibition)
- assayContext: time post-induction: 4.5 h; library: site-saturation at positions 5, 18, 19, 20
Form field: shrunken log2 fold change (one value per entry).

Known results for sequences:
- RRIRFRPPRLPRPRPRPKWMPRP: -0.235
- RRIRQRPPRLPRPRPRPFFLPRP: -0.376

shrunken log2 fold change for `RRIRERPPRLPRPRPRPITYPRP` ?
-0.546

If you can, please state the reported shrunken log2 fold change value of `RRIRLRPPRLPRPRPRPAIKPRP` .
-0.139

What value of shrunken log2 fold change has been reported for the following sequence? `RRIRHRPPRLPRPRPRPPLAPRP`
0.378

---

- Test system: Escherichia coli TOP10;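 also: peptides expressed intracellularly from a pBAD plasmid library in pooled LB shake-flask culture, induced with 0.3% L-arabinose, DNA abundance read by NGS, three biological replicates, DESeq2 with apeglm shrinkage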
- experimentNotes: shrunken log2 fold change of peptide-encoding DNA abundance (4.5 h post-induction vs induction); higher = less antimicrobial activity (less host growth inhibition)
- assayContext: time post-induction: 4.5 h; library: site-saturation at positions 5, 18, 19, 20
experimentalReadout: shrunken log2 fold change
I'd appreciate a reply containing only the number, no unit.

The examples below pair each entry with its known result.
- RRIRQRPPRLPRPRPRPDTNPRP: -0.413
- RRIRMRPPRLPRPRPRPVEFPRP: -0.0638
- RRIRPRPPRLPRPRPRPQNDPRP: -0.371
- RRIRNRPPRLPRPRPRPMMAPRP: -0.106
- RRIRHRPPRLPRPRPRPERIPRP: -0.0507

# lookup: shrunken log2 fold change of `RRIRARPPRLPRPRPRPCWNPRP`
-0.0387

Need shrunken log2 fold change of `RRIRYRPPRLPRPRPRPSVQPRP` , thanks.
-0.065

Return reported shrunken log2 fold change; argument: `RRIRQRPPRLPRPRPRPFSIPRP`
-0.104

Query: shrunken log2 fold change; subject: `RRIRPRPPRLPRPRPRPWQGPRP`
-0.00211

Which shrunken log2 fold change is listed for `RRIRIRPPRLPRPRPRPSSKPRP` ?
-0.599

Data request, read-out shrunken log2 fold change, for `RRIRRRPPRLPRPRPRPDTVPRP`
0.0777

Given the sequence `RRIRDRPPRLPRPRPRPFWNPRP` , what is its reported shrunken log2 fold change?
-0.28

For the sequence `RRIRHRPPRLPRPRPRPFVMPRP` , what shrunken log2 fold change is on record?
-0.281

Form field: reported shrunken log2 fold change of `RRIRVRPPRLPRPRPRPNERPRP`
0.0435

What does the record list as shrunken log2 fold change for `RRIRTRPPRLPRPRPRPNCIPRP` ?
-0.288

I am curious: what shrunken log2 fold change value has been reported for `RRIRGRPPRLPRPRPRPGRSPRP` ?
0.85

Any idea what shrunken log2 fold change was measured for `RRIRSRPPRLPRPRPRPHEWPRP` ?
0.147

May I ask what shrunken log2 fold change has been recorded for `RRIRKRPPRLPRPRPRPPTIPRP` ?
0.119

Name the reported shrunken log2 fold change value associated with the sequence `RRIRKRPPRLPRPRPRPEHGPRP`
0.0647

What measured shrunken log2 fold change goes with `RRIRFRPPRLPRPRPRPKQYPRP` ?
-0.43

Which shrunken log2 fold change is listed for `RRIRIRPPRLPRPRPRPAERPRP` ?
0.0773

What value of shrunken log2 fold change has been reported for the following sequence? `RRIRTRPPRLPRPRPRPDMSPRP`
-0.0305

Look up shrunken log2 fold change for this sequence: `RRIRPRPPRLPRPRPRPIMNPRP`
-0.799

Suppose we examine the sequence `RRIRHRPPRLPRPRPRPLEWPRP` ; what shrunken log2 fold change value has been reported?
-0.0135

Tell me the measured shrunken log2 fold change of `RRIRIRPPRLPRPRPRPDRWPRP` , please.
0.0549

# get_value(readout='shrunken log2 fold change', item= `RRIRPRPPRLPRPRPRPGGDPRP` )
0.496

Fill blank: measured shrunken log2 fold change of the sequence `RRIRHRPPRLPRPRPRPGIAPRP` is ____.
-0.0902

# input sequence: `RRIRDRPPRLPRPRPRPICLPRP` ; wanted: its shrunken log2 fold change
0.0829

Looking for the measured shrunken log2 fold change of `RRIRERPPRLPRPRPRPDIAPRP` , can you help?
-0.0321
